Method: CCTE_Shafer_MEA_acute_per_network_burst_spike_number_std: CCTE's Neural Acute Assay for Standard Deviation of Number of Spikes in a Network Burst, Shafer Lab (AID 2284020);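 further: fitted for decrease in spike-number SD versus DMSO so actives lower it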
Calls of active or inactive are those of the source. How the source made its calls: active means hit-call score of the fitted dose curve at least 0.9, where 1 is the maximum; inactive means score below 0.9.
API: response.call in t = active, f = inactive

Problem: In this assay, the call recorded for "CSC(=O)c1cccc2nnsc12" was what?
Result: f

New cases:
Problem: In this assay, the call recorded for "O=C(c1ccccc1)C1CCCCC1" was what?
Result: f

Problem: In this assay, the call recorded for CCCCC(CC)CN1C(=O)C2C3C=CC(C3)C2C1=O (stereo not given) was what?
Result: t

Problem: In this assay, the call recorded for "CC(C)(C)[C@@H](O)[C@@H](Cc1ccc(Cl)cc1)n1cncn1" was what?
Result: f

Problem: In this assay, the call recorded for "C#CCOC(=O)[C@@H](C)Oc1ccc(Oc2ncc(Cl)cc2F)cc1" was what?
Result: f
